Cited source: PubChem BioAssay AID652010

- TEST_METHOD_NOTES: DAX1 (NR0B1) inhibitors on StAR promoter, primary screen, cell-based, luminescence, SF-1 (NR5A1), full-length DAX-1 (AID 652010);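 note: 0% = DAX-1 cells with DMSO and 100% = cells lacking DAX-1 with DMSO; higher inhibition means more luminescence from relief of DAX-1 repression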
- MEASUREMENT_PARAMETERS: HEK293T StAR-luciferase reporter, SF-1/DAX-1 repression relief; at 6.8 µM; hits give high values
Out of some 370,000 compounds screened, about 4,100 (1.1%) were called active. This is one part of a sample in which actives are shown more often than they occur.
For each record, write down the corresponding inhibition.
Numbers only, in %.

Some molecules with recorded inhibition:
| MOLECULE | inhibition [%] |
| --- | --- |
| CCCCCCCCN1C(=O)[C@@H](CC(=O)N2CCN(C(=O)OCC)CC2)C[C@@]2(C(=O)OC)C1=C[C@H](C1CCCC1)O[C@@H]2C | 0.13 |
| CCn1c2ccccc2c2cc(NC(=O)CSc3nnc(-c4ccccc4)n3-c3ccc(C)cc3)ccc21 | -0.77 |
| CC(=NCC1CCCO1)c1c(O)[nH]c(=O)[nH]c1=O (stereo unspecified) | 1.34 |
| Cc1cc(C(=O)NN=C/C=C/c2ccco2)n[nH]1 | 0.49 |
| CSc1ccccc1NC(=O)c1cc(Cl)sc1Cl | -0.22 |

Could you report inhibition for every entry in the following list?
1. CN1C(=O)/C(=C/C=C2\SCCN2C)OC1=S
2. O=C(Nc1ccc2c(c1)OCCO2)C(C1CC1)N1CCC(Cc2ccccc2)CC1 (stereo unspecified)
3. CCc1ccc(CN2C(=O)c3ccccc3C2C(=O)NCC2CCCO2)cc1 (stereo unspecified)
4. O=c1oc(-c2ccccc2NS(=O)(=O)c2ccc(Cl)cc2)nc2ccccc12
5. Cc1cc(C)cc(NC(=O)N2CCC(N(C)CCC(C)C)CC2)c1

Reply |
1. 3.87
2. -0.46
3. -0.05
4. 0.22
5. 1.03

Ask | Quick one: inhibition for "O=c1oc(/C=C/c2ccccc2)nc2ccccc12" ?
Reply | 5.78
